biological target: DNA topoisomerase 2-alpha (Homo sapiens) (UniProt P11388); test: Inhibition of human topoisomerase 2alpha-mediated relaxation of supercoiled pBR322 at 100 uM after 30 mins by electrophoresis analysis
Sequence (P11388 whole entry): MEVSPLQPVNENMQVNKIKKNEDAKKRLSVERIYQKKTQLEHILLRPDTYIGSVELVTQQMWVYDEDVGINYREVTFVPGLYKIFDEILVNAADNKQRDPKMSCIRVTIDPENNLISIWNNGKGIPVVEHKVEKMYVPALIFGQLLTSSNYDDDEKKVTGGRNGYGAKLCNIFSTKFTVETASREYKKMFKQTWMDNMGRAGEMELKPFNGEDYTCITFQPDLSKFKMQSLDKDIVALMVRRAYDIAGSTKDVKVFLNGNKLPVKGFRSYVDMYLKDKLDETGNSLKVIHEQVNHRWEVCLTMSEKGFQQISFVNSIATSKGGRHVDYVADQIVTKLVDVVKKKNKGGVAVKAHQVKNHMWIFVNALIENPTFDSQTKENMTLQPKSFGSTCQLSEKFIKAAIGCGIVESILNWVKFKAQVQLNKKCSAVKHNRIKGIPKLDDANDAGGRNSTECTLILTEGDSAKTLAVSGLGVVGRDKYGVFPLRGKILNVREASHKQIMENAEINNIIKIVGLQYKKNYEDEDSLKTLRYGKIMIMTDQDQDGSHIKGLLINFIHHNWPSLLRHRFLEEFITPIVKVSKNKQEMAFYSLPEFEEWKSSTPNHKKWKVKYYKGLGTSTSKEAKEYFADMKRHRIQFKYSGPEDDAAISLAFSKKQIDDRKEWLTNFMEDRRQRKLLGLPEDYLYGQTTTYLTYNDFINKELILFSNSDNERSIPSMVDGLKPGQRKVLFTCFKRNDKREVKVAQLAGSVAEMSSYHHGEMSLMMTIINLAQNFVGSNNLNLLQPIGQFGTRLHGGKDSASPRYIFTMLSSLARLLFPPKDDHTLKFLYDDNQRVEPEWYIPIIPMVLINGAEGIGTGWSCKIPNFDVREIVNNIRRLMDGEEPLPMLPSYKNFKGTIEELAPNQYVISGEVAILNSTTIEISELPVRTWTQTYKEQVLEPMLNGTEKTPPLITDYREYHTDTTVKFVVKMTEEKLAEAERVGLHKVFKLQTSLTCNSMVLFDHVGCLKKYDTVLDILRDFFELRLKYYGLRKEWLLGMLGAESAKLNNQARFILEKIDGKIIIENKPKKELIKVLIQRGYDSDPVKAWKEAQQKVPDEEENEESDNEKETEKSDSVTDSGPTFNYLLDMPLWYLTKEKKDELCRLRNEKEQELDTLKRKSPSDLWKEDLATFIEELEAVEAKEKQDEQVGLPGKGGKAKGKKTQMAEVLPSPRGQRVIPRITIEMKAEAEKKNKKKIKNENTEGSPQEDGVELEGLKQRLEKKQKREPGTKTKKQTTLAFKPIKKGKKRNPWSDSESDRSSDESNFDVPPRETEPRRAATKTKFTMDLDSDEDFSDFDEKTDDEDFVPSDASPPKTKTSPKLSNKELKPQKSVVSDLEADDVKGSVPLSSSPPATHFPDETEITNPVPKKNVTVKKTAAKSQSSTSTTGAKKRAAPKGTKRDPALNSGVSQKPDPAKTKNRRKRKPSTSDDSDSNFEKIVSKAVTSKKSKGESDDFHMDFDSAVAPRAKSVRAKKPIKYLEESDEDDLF
I'd be grateful if you could share measured inhibition for these entries.
One number for each entry, in %.

Some solved entries appear below for comparison.
compound="COc1cc(OCC(O)CN(CCO)CCO)c2c(c1)O[C@@H]1COc3cc(OC)c(OC)cc3[C@]1(O)C2=O (stereo partly specified)" data_value=49.1
compound="COc1cc(OCC(O)CO)c2c(c1)O[C@@H]1COc3cc(OC)c(OC)cc3[C@]1(O)C2=O (mixture of isomers)" data_value=38.8
compound="COc1cc(OCC(O)CNCCN2CCOCC2)c2c(c1)O[C@@H]1COc3cc(OC)c(OC)cc3[C@]1(O)C2=O (mixture of isomers)" data_value=77.1
compound="COc1cc(OCC(O)CN2CCC(=O)CC2)c2c(c1)O[C@@H]1COc3cc(OC)c(OC)cc3[C@]1(O)C2=O (mixture of isomers)" data_value=54.2

Give inhibition for each listed item.
1. COc1cc(OCC2CO2)c2c(c1)O[C@@H]1COc3cc(OC)c(OC)cc3[C@]1(O)C2=O (mixture of isomers)
2. COc1cc(OCC(O)CNCC(O)c2ccccc2)c2c(c1)O[C@@H]1COc3cc(OC)c(OC)cc3[C@]1(O)C2=O (mixture of isomers)

(A)
[68.3, 60.4]
